# Assayed System: DRB1*1501 (Homo sapiens, UniProt P01903+P01911)
# Procedure Text: biochemical
# Format: binding
No end group written: not given here.
In this section we review reported pIC50 values for a set of sequences.
Quick note: pIC50 means taking -log10 of the concentration in moles per liter.

Use these answered entries as a reference point.
• RQHLANHPAATHTKA [Peptide 89.0155] = 5.06
• LKLFLKGVPKKNCIL [Peptide 89.0054] = 5.47
• FAGIVTKLPTANNTT [Peptide 89.0175] = 5.59

Input line: Entry LKSFLKGTPKKNCLV [Peptide 89.0035] has what pIC50?
Output line: 5.29

Input line: Please look up its pIC50: IHFLQGAIISFVNSN [Peptide 89.0089]
Output line: 7.27

Input line: Using the record for IHFIQGAVISFVNST [Peptide 89.0037] , report its pIC50.
Output line: 5.16

Input line: Need pIC50 of LETIYNSQYSNEKWT [Peptide 1601.03] , thanks.
Output line: 6.25

Input line: May I ask what pIC50 has been recorded for LKVLIQPYSIYAHLQ [Peptide 89.0098] ?
Output line: 7.10

Input line: Need pIC50, item EDLRTLQQLFLSTLS [Peptide 1543.21]
Output line: 6.85

----------
IC50 listing for selected sequences.
# Assayed System: A*0206 (Homo sapiens, UniProt P04439, D140Y/D185E/D98H/E176V/E277Q/F33Y/G131W/G231S/I119V/I121R/I166T/I218V/L300P/L318F/N151K/N90K/P208A/P217A/Q86G/Q94H/R138H/R169H/T345S)
# Procedure Text: biochemical
# Type: binding
No end group written: not given here.
Record the value in nM, omitting the unit from your answer.

Below, 5 sequences whose answers are already recorded.
• YLHNRLVVFT [Peptide 86.0075] = 15200
• VLAEAMAAA [Peptide 1516.12] = 16
• FLGALKSFL [Peptide 1578.11] = 1720
• YTYYRPGVNV [Peptide 9013.0208] = 75
• YLCGIQNSVSA [Peptide 9013.0338] = 513

We now examine a further sequence.
Input line: If you can, please state the reported IC50 value of RILQQLLLI [Peptide 1525.20] .
Output line: 82

----------
# Assayed System: B*0701 (Homo sapiens, UniProt P01889)
# Procedure Text: biochemical
# Condition Summary: B*0701 (nM), binding of B7-like supermotif 10-mer peptides to purified HLA-B*0701
No end group written: not given here.
Measurement Name: IC50 (nM)
The reply should be a number in nM, with the unit left off.

Input line: For DPSHITAETA [16.183] , what is its reported IC50?
Output line: 2350

Input line: Quick one: IC50 for SPIETVPVKL [15.253] ?
Output line: 1960

----------
# Assayed System: DRB5*0101 (Homo sapiens, UniProt P01903+Q30154)
# Procedure Text: biochemical
# Condition Summary: Binding affinity DRB5 *0101
pIC50: −log10 of the molar value.
Measurement Name: pIC50

- CC(C)[C@H](NC(=O)[C@H](CCC(=O)O)NC(=O)[C@H](Cc1c[nH]c2ccccc12)NC(=O)[C@@H](NC(=O)CNC(=O)[C@@H](NC(=O)[C@H](CC(N)=O)NC(=O)CNC(=O)[C@H](Cc1ccc(O)cc1)NC(=O)[C@H](CCCCN)NC(=O)[C@@H](N)CCC(=O)O)[C@@H](C)O)[C@@H](C)O)C(=O)N[C@@H](Cc1c[nH]cn1)C(=O)N[C@@H](Cc1ccccc1)C(=O)NCC(=O)N[C@@H](CC(N)=O)C(=O)O [Peptide 1601.11]: < 4.70
- CC[C@H](C)[C@H](NC(=O)[C@@H](NC(=O)[C@H](Cc1c[nH]cn1)NC(=O)[C@@H](N)CC(C)C)C(C)C)C(=O)N[C@@H](CO)C(=O)N[C@@H](CC(N)=O)C(=O)N[C@@H](CC(=O)O)C(=O)N[C@H](C(=O)N[C@@H](CS)C(=O)N[C@@H](C)C(=O)N[C@@H](CCC(N)=O)C(=O)N[C@H](C(=O)N[C@@H](Cc1c[nH]cn1)C(=O)N1CCC[C@H]1C(=O)N[C@@H](CCC(N)=O)C(=O)O)C(C)C)C(C)C [Peptide 68.0077]: < 4.70

Input line: Which pIC50 value belongs to CC[C@H](C)[C@H](NC(=O)[C@@H]1CCCN1C(=O)[C@H](CCC(N)=O)NC(=O)[C@@H](N)Cc1c[nH]c2ccccc12)C(=O)N1CCC[C@H]1C(=O)N[C@H](C(=O)N[C@@H](Cc1c[nH]cn1)C(=O)N[C@H](C(=O)N[C@H](C(=O)N1CCC[C@H]1C(=O)N[C@@H](CC(C)C)C(=O)N[C@@H](CO)C(=O)N[C@@H](CCC(=O)O)C(=O)N[C@@H](CC(=O)O)C(=O)N[C@@H](CCC(N)=O)C(=O)O)C(C)C)[C@@H](C)O)C(C)C [Peptide 68.0039] ?
Output line: < 4.70

----------
# Assayed System: A*6802 (Homo sapiens, UniProt P04439, A269V/D140Y/D185E/E176V/E277Q/E87N/F33Y/G231S/I121R/I166T/I218V/L180W/L300P/L318F/N151K/P208A/P217A/Q86R/R138H/R169H/S129P/T345S/V36M)
# Procedure Text: biochemical
Measurement Name: IC50 (µM)
Dear colleague, please return just the value in µM, with no unit written.

• CC[C@H](C)[C@H](N)C(=O)N[C@@H](CCSC)C(=O)N[C@H](C(=O)NCC(=O)N[C@H](C(=O)N[C@@H](CC(C)C)C(=O)N[C@H](C(=O)NCC(=O)N[C@H](C(=O)N[C@@H](C)C(=O)N[C@H](C(=O)O)C(C)C)C(C)C)C(C)C)C(C)C)[C@@H](C)CC [Peptide 9013.0346] = 9

# next compound below
Input line: Which IC50 is reported for this compound? CC[C@H](C)[C@H](NC(=O)[C@@H](NC(=O)[C@H](CC(C)C)NC(=O)[C@@H](N)CS)[C@@H](C)O)C(=O)N[C@@H](Cc1c[nH]cn1)C(=O)N[C@@H](Cc1ccc(O)cc1)C(=O)N[C@@H](CC(N)=O)C(=O)N[C@@H](Cc1ccc(O)cc1)C(=O)N[C@H](C(=O)O)C(C)C [Peptide 1323.07]
Output line: 0.64

----------
# Assayed System: DRB1*1201 (Homo sapiens, UniProt P01903+P01911, A100R/A169T/D57E/D86V/F55L/H45Y/K41T/L162R/M171V/P40S/Q125H/Q178H/Q39Y/Q99D/R42G/S66L/T262R/V114A/V67L/W38E/Y59H/Y61H/Y89S)
# Procedure Text: biochemical
Measurement Name: IC50 (µM)
Could you give me the number in µM? Just the number is fine.

- CSCC[C@H](NC(=O)[C@H](CC(C)C)NC(=O)[C@H](CC(=O)O)NC(=O)[C@@H](N)Cc1c[nH]cn1)C(=O)N[C@@H](CC(C)C)C(=O)N[C@@H](CC(C)C)C(=O)N[C@@H](CCCNC(=N)N)C(=O)N[C@@H](CC(C)C)C(=O)N[C@@H](CO)C(=O)N[C@@H](CCC(=O)O)C(=O)N1CCC[C@H]1C(=O)N[C@@H](C)C(=O)N[C@@H](CCC(=O)O)C(=O)N[C@@H](CC(C)C)C(=O)N[C@H](C(=O)O)[C@@H](C)O [Peptide 68.0073]: 0.52

For the next question, use this compound.
Input line: Request the reported IC50 associated with CSCC[C@H](NC(=O)[C@H](CCC(=O)O)NC(=O)[C@H](CCC(N)=O)NC(=O)[C@@H]1CCCN1)C(=O)N[C@@H](CCCCN)C(=O)N[C@H](C(=O)N[C@@H](Cc1ccc(O)cc1)C(=O)N[C@@H](CO)C(=O)N[C@H](C(=O)N[C@@H](CO)C(=O)N[C@@H](Cc1ccccc1)C(=O)N[C@@H](CC(=O)O)C(=O)N[C@@H](CO)C(=O)N[C@@H](CC(C)C)C(=O)N[C@@H](Cc1ccccc1)C(=O)O)C(C)C)[C@@H](C)O [Peptide 68.0127]
Output line: 5.35

----------
# Assayed System: HLA-A24
# Type: binding, human
# Condition Summary: read-out: KD from Scatchard experiments, A24
Measurement Name: Kd
Include the unit after the number when you answer.

Input line: Returns the measured Kd for the input sequence. Input: AYIDNVYKF [Peptide 979-01, reference compound]
Output line: 0.136 µM

----------
# Assayed System: DRB1*1101 (Homo sapiens, UniProt P01903+P01911, A100R/A169T/A87E/I96F/K41T/L162R/M171V/P40S/Q125H/Q178H/Q39Y/Q99D/R42S/S66Y/T262R/V115G/W38E)
# Sequence (P01903 26-254 limits assumed, other chains not shown): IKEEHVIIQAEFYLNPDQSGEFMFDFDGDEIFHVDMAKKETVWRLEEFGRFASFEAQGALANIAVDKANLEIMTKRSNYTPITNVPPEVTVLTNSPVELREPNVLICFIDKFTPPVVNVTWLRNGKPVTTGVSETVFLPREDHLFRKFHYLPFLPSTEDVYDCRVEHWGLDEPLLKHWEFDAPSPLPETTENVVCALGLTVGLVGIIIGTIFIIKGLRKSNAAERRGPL
# Procedure Text: biochemical
# Condition Summary: DRB1*1101
pIC50: −log10 of the molar value. No end group written: not given here.
Measurement Name: pIC50

- GIVEQTTTSITSLYQ [Peptide 9000.0054]: < 4.98

Kindly review the next sequence as well.
Input line: What value of measured pIC50 is listed for YIVMSDWTGGA [Peptide 510.33] ?
Output line: < 5.18
